Record form. Attribute: log10(IC50). Fill in for each entry.
- system: Dihydrofolate reductase (Pneumocystis carinii, UniProt P16184)
- Sequence (P16184 whole entry): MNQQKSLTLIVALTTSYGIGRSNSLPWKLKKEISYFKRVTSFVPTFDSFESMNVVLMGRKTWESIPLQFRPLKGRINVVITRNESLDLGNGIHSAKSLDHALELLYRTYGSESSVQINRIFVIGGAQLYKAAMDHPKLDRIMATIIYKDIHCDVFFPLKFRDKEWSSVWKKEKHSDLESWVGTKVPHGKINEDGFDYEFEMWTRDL
Please interpret these as log10 of IC50 where IC50 is in µM.

The following compounds have reported results that may help.
>>> measvalue("COc1ccc(CN(C)c2cnc3nc(N)nc(N)c3c2)c(OC)c1OC")
-1.10
>>> measvalue("COc1ccc(CNc2cnc3nc(N)nc(N)c3c2)cc1OC")
0.68
>>> measvalue("COc1ccc2c(CNc3cnc4nc(N)nc(N)c4c3)cccc2c1")
1.19

State recorded log10(IC50) for all listed compounds.
1. Nc1nc(N)c2cc(NCc3ccc(Oc4ccccc4)cc3)cnc2n1
2. Nc1nc(N)c2cc(NCc3cccc4ccccc34)cnc2n1
3. Nc1nc(N)c2cc(NCCc3ccccc3)cnc2n1

Result:
1. 1.39
2. 0.59
3. 0.29

###

Record form. Attribute: pIC50. Fill in for each entry.
- system: Bifunctional dihydrofolate reductase-thymidylate synthase (Toxoplasma gondii, UniProt Q07422)
- Sequence (Q07422 whole entry): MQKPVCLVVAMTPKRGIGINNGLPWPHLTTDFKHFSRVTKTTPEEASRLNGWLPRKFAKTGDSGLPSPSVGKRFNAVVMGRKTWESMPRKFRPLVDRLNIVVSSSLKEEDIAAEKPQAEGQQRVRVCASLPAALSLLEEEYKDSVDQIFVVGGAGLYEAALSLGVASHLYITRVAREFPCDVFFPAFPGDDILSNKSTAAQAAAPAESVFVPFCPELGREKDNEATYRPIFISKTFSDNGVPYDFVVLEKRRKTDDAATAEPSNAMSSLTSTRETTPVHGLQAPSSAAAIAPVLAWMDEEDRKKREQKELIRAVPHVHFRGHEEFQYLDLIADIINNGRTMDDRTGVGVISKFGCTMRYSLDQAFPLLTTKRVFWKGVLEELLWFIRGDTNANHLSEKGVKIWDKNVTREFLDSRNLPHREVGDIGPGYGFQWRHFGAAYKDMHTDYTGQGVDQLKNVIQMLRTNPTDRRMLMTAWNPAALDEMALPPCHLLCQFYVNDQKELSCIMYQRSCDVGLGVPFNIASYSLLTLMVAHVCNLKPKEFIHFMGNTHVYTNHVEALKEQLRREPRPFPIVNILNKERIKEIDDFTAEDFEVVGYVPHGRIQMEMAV
Give bare numbers, as −log10 of the molar value.

A selection of reference data follows.
>>> measvalue("COc1cc(CNc2cnc3nc(N)nc(N)c3c2)cc(OC)c1")
5.92
>>> measvalue("COc1cc(CN(C)c2cnc3nc(N)nc(N)c3c2)cc(OC)c1")
7.51
>>> measvalue("CN(CCc1ccccc1)c1cnc2nc(N)nc(N)c2c1")
6.04
>>> measvalue("COc1cc(C(C)Nc2cnc3nc(N)nc(N)c3c2)cc(OC)c1OC (configuration not stated)")
6.71

Please state, for each entry, its recorded pIC50.
1. COc1ccc(CNc2cnc3nc(N)nc(N)c3c2)cc1OC
2. COc1ccc(CNc2cnc3nc(N)nc(N)c3c2)c2ccccc12
3. COc1cc(CNc2cnc3nc(N)nc(N)c3c2)cc(OC)c1OC
4. COc1cc(OC)c(OC)cc1CNc1cnc2nc(N)nc(N)c2c1
5. COc1cc(OC)c(CNc2cnc3nc(N)nc(N)c3c2)c(OC)c1
6. Nc1nc(N)c2cc(NCc3ccccc3)cnc2n1
7. Nc1nc(N)c2cc(NCc3cccc4ccccc34)cnc2n1
8. COc1ccc(CN(C)c2cnc3nc(N)nc(N)c3c2)c(OC)c1OC

Result:
1: 6.14; 2: 6.42; 3: 6.46; 4: 6.32; 5: 6.64; 6: 6.28; 7: 6.01; 8: 7.59

I would be grateful if you could provide pIC50 for each of the following entries.
1. COc1ccc2c(CNc3cnc4nc(N)nc(N)c4c3)cccc2c1
2. Nc1nc(N)c2cc(NCc3ccc(Oc4ccccc4)cc3)cnc2n1
3. COc1cc(CN(C)c2cnc3nc(N)nc(N)c3c2)cc(OC)c1OC
4. Nc1nc(N)c2cc(NCCc3ccccc3)cnc2n1

Result:
[6.15, 5.43, 7.85, 5.35]

Ask: Fill in: pIC50 of COc1ccc(OC)c(CNc2cnc3nc(N)nc(N)c3c2)c1 is ___
Result: 6.51
